Target or system Asaia siamensis SUN03: recorded MIC listed per item.

# example entries with known answers
CCCC(O)CC(=O)O[C@H]1[C@H](O[C@H]2[C@H](O)[C@@H](O)[C@H](OCC(O)CCCCCCCCCCCCC(O)C(=O)O)O[C@@H]2COC(C)=O)O[C@H](CO)[C@@H](O)[C@@H]1O (stereo partly shown) ... 500 µg/mL
O=C(O)CCCCCCCCCCCCCC(O)CO[C@@H]1O[C@H](COC(=O)O)[C@@H](O[C@@H]2O[C@H](CO)[C@@H](O)[C@H](O)[C@H]2OC(=O)CC(O)CCO)[C@H](O)[C@H]1O (stereo partly shown) ... ≤ 125 µg/mL
O=C(O)OC[C@H]1O[C@@H](OCC(O)CCCCCCCCCCC/C=C(\O)C(=O)O)[C@H](O)[C@@H](O)[C@@H]1O[C@@H]1O[C@H](CO)[C@@H](O)[C@H](O)[C@H]1OC(=O)CC(O)CCO (stereo partly shown) ... > 500 µg/mL

Moving on to the next molecule.
Query: Hi! What's the reported MIC for CCCCCCCC(=O)O[C@H]1[C@H](O[C@H]2[C@H](O)[C@@H](O)[C@H](OCC(O)CCCCCCCCCCCCC(O)C(=O)O)O[C@@H]2COC(C)=O)O[C@H](CO)[C@@H](O)[C@@H]1O (stereo partly shown) on Asaia siamensis SUN03?
Reply: > 500 µg/mL

* * *

MIC for assorted molecules
Tested on: Brettanomyces sp SUN08
Assay: Antimicrobial activity (MIC), Brettanomyces sp SUN08
Assay type: cell-based
Conditions: potato dextrose broth pH 3.8, visual evaluation, read-out: Minimal Inhibitory Concentration (MIC)
Write it as a number; the unit µg/mL goes unstated.

# example entries with known answers
O=C(O)OC[C@H]1O[C@@H](OCC(O)CCCCCCCCCCCCC(O)C(=O)O)[C@H](O)[C@@H](O)[C@@H]1O[C@@H]1O[C@H](CO)[C@@H](O)[C@H](O)[C@H]1O (stereo partly drawn) ... 250
O=C(O)OC[C@H]1O[C@@H](OCC(O)CCCCCCCCCCC/C=C(\O)C(=O)O)[C@H](O)[C@@H](O)[C@@H]1O[C@@H]1O[C@H](CO)[C@@H](O)[C@H](O)[C@H]1OC(=O)CC(O)CCO (stereo partly drawn) ... 250
CCCCCCCC(=O)O[C@H]1[C@H](O[C@H]2[C@H](O)[C@@H](O)[C@H](OCC(O)CCCCCCCCCCCCC(O)C(=O)O)O[C@@H]2COC(C)=O)O[C@H](CO)[C@@H](O)[C@@H]1O (stereo partly drawn) ... 500

Moving on to the next molecule.
Query: Hi! What's the reported MIC for O=C(O)CCCCCCCCCCCCCC(O)CO[C@@H]1O[C@H](COC(=O)O)[C@@H](O[C@@H]2O[C@H](CO)[C@@H](O)[C@H](O)[C@H]2OC(=O)CC(O)CCO)[C@H](O)[C@H]1O (stereo partly drawn) on Brettanomyces sp SUN08?
Reply: 125

* * *

System: Alicyclobacillus acidoterrestris DSM 2498
READOUT_LABEL: MIC (µg/mL)
Write it as a number; the unit µg/mL goes unstated.

CCCCCC(O)CC(=O)O[C@H]1[C@H](O[C@H]2[C@H](O)[C@@H](O)[C@H](OCC(O)CCCCCCCCCCCCCC(=O)O)O[C@@H]2COC(C)=O)O[C@H](CO)[C@@H](O)[C@@H]1O (stereo partly shown) ... 4
CCCCCC(O)CC(=O)O[C@H]1[C@H](O[C@H]2[C@H](O)[C@@H](O)[C@H](OCC(O)CCCCCCCCCCCCC(O)C(=O)O)O[C@@H]2COC(C)=O)O[C@H](CO)[C@@H](O)[C@@H]1O (stereo partly shown) ... 240
O=C(O)OC[C@H]1O[C@@H](OCC(O)CCCCCCCCCCC/C=C(\O)C(=O)O)[C@H](O)[C@@H](O)[C@@H]1O[C@@H]1O[C@H](CO)[C@@H](O)[C@H](O)[C@H]1OC(=O)CC(O)CCO (stereo partly shown) ... 16

Moving on to the next molecule.
Query: Hi! What's the reported MIC for CCCC(O)CC(=O)O[C@H]1[C@H](O[C@H]2[C@H](O)[C@@H](O)[C@H](OCC(O)CCCCCCCCCCCCC(O)C(=O)O)O[C@@H]2COC(C)=O)O[C@H](CO)[C@@H](O)[C@@H]1O (stereo partly shown) on Alicyclobacillus acidoterrestris DSM 2498?
Reply: 240
